// data source = the supplement of paper PMC11451515

Test system: P12-Ichikawa
assayProcedure: cell viability relative to DMSO control; higher = less cytotoxic
studyConditions: HPLM + 10% dialyzed FBS; 48 h; 0.569 µM
observable: cell viability (%)
The figure you give is taken to be in %; do not add the unit.

IN: Entry "C[N]1C=C(C=N1)C2=CC=C3N=CC\4=C(N(C(=O)\C=C4)C5=CC6=C(CCN6C(=O)C=C)C=C5)C3=C2" : reported cell viability = ?
OUT: 105

IN: // same read-out, input: "N[C@@H](Cc1ccc(O)c(O)c1)C(=O)O"
OUT: 127

IN: // same read-out, input: "N#C/C(=C1/Nc2ccccc2S1)c1ccnc(OCc2ccc(CN3CCOCC3)cc2)n1"
OUT: 109

IN: // same read-out, input: "C[C@H](Cc1ccc(O)c(O)c1)[C@@H](C)Cc1ccc(O)c(O)c1"
OUT: 117

IN: // same read-out, input: "N#Cc1ccc(NC(=O)Nc2ccccc2Br)c2nn[nH]c12"
OUT: 122

IN: // same read-out, input: "Cc1nc(N)ncc1-c1nc(N2CCOCC2)c2sc(C(C)(C)O)cc2n1"
OUT: 7.79

IN: // same read-out, input: "CCOC(=O)[C@@H](N)CCC(=O)N[C@@H](CSCc1ccccc1)C(=O)N[C@@H](C(=O)OCC)c1ccccc1"
OUT: 129

IN: // same read-out, input: "CO[C@@H]1[C@@H](O)[C@H](O)[C@@H](n2c3c(Cl)cccc3c3c4c(c5c6cccc(Cl)c6[nH]c5c32)C(=O)NC4=O)O[C@H]1CO"
OUT: 14.3

IN: // same read-out, input: "NC\1=N\C(=O)N(\C=C1F)[C@H]2C[C@H](O)[C@@H](CO)O2"
OUT: 43.7
